# MEASUREMENT DESCRIPTION: In vitro metabolism rate determination, human liver microsome (HLM) assay
# Type: in vitro ADME
# REPORTED CONDITIONS: human, liver microsomes, read-out: HLM: Clint, app
PROPERTY NAME: microsomal CLint at 1 μM (µL/min/mg)
The response must be a number in µL/min/mg with no trailing unit.

Example cases with answers are listed next.
>>> meas_value("CC(C)C(=O)N1CCN(C(=O)[C@@H]2CN(c3ccc(=O)n(C)n3)C[C@H]2c2ccc(F)cc2F)CCC[C@H]1c1ccc(Cl)cc1 [Example 33]")
17
>>> meas_value("CS(=O)(=O)N1CCN(C(=O)[C@@H]2CN(c3cccnn3)C[C@H]2c2ccc(F)cc2F)CCCC1c1ccc(Cl)cc1 (mixture of isomers) [Example 41]")
41
>>> meas_value("COC(=O)N1CCN(C(=O)[C@@H]2CN(c3cccnn3)C[C@H]2c2ccc(F)cc2F)CCCC1c1ccccc1 (mixture of isomers) [Example 100]")
83
>>> meas_value("CCCC(=O)N1CCN(C(=O)[C@@H]2CN(c3cccnn3)C[C@H]2c2ccc(F)cc2F)CCCC1c1ccccc1 (mixture of isomers) [Example 101]")
143
>>> meas_value("COc1ccc([C@@H]2CN(C(C)(C)C)C[C@H]2C(=O)N2CCCC(c3ccc(Cl)cc3)N(S(C)(=O)=O)CC2)c(F)c1 (mixture of isomers) [Example 92]")
32.4
>>> meas_value("COc1ccc(C2CCCN(C(=O)[C@@H]3CN(c4ccc(C#N)nn4)C[C@H]3c3ccc(F)cc3F)CCN2C(C)=O)cc1 (mixture of isomers) [Example 1]")
31

Exercise: Name the recorded microsomal CLint at 1 μM of the item COC(=O)N1CCN(C(=O)[C@@H]2CN(c3cccnn3)C[C@H]2c2ccc(OC)cc2F)CCC1c1ccc(Cl)cc1 (mixture of isomers) [Example 95] in your answer.
Solution: 41.7

Exercise: Recall and state the measured microsomal CLint at 1 μM for COC(=O)N1CCN(C(=O)[C@@H]2CN(c3ccc(=O)n(C)n3)C[C@H]2c2ccc(OC)cc2F)CCC[C@H]1c1ccc(Cl)cc1 [Example 118] .
Solution: 23.2

Exercise: Please supply the value of reported microsomal CLint at 1 μM for the item CC(C)(C)N1C[C@@H](C(=O)N2CCC[C@@H](c3ccc(Cl)cc3)N(C(=O)CC(F)(F)F)CC2)[C@H](c2ccc(F)cc2F)C1 [Example 12]
Solution: 17

====

Listed here are compounds together with their documented EC50.
# ASSAY TARGET: MC4 receptor (Homo sapiens, UniProt P32245)
# Sequence (P32245 whole entry): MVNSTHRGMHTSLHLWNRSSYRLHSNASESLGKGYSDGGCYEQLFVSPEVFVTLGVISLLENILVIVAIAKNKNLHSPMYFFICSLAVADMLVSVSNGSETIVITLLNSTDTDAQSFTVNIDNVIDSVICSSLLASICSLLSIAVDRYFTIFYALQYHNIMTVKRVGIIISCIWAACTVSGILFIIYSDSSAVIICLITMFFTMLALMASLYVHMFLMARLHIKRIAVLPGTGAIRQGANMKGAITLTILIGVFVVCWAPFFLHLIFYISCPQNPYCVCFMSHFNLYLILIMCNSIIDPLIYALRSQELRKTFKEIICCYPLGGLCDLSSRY
# MEASUREMENT DESCRIPTION: MC4 EC50 functional potency (protocol E of US2005/0176772 / WO 2005/077935)
Could you give me the number in nM? Just the number is fine.

>>> meas_value("CC(=O)N1CCN(C(=O)[C@@H]2CN(c3cccnn3)C[C@H]2c2ccc(F)cc2F)CCCC1c1ccccc1 (mixture of isomers) [Example 103]")
9.79

Exercise: State, in one line, measured EC50 of CC(C)(C)N1C[C@@H](C(=O)N2CCC[C@@H](c3ccc(Cl)cc3)N(C(=O)C3N=CC=N3)CC2)[C@H](c2ccc(F)cc2F)C1 [Example 64]
Solution: 247

Exercise: Supply EC50 value. Item: CC(C)(C)N1C[C@@H](C(=O)N2CCC[C@@H](c3ccc(Cl)cc3)N(C(=O)C3CCOCC3)CC2)[C@H](c2ccc(F)cc2F)C1 [Example 59]
Solution: 25.2

Exercise: Fill in reported EC50 for this entry: COC(=O)N1CCN(C(=O)[C@@H]2CN(c3ccc(=O)n(C)n3)C[C@H]2c2ccc(F)cc2F)CCCC1c1ccc(Cl)cc1 (mixture of isomers) [Example 80]
Solution: 5.41

====

# MEASUREMENT DESCRIPTION: In vitro metabolism rate determination, human liver microsome (HLM) assay
# Assay type: in vitro ADME
# REPORTED CONDITIONS: human, liver microsomes, read-out: HLM: Clint, app
PROPERTY NAME: microsomal CLint at 1 μM (µL/min/mg)
Report the value in µL/min/mg with no unit label.

As a guide, the following entries are already answered.
>>> meas_value("COc1ccc([C@@H]2CN(c3ccc(=O)n(C)n3)C[C@H]2C(=O)N2CCCC(c3ccc(Cl)cc3)N(S(C)(=O)=O)CC2)c(F)c1 (mixture of isomers) [Example 115]")
22.7
>>> meas_value("COc1cccc(C2CCCN(C(=O)[C@@H]3CN(c4ccc(C#N)nn4)C[C@H]3c3ccc(F)cc3F)CCN2C(C)=O)c1 (mixture of isomers)")
237
>>> meas_value("CC(C)(C)N1C[C@@H](C(=O)N2CCC[C@@H](c3ccc(Cl)cc3)N(C(=O)C3CCC3)CC2)[C@H](c2ccc(F)cc2F)C1")
82.8

Exercise: Supply recorded microsomal CLint at 1 μM for COC(=O)N1CCN(C(=O)[C@@H]2CN(c3ccc(C#N)nn3)C[C@H]2c2ccc(F)cc2F)CCCC1c1ccc(Cl)cc1 (mixture of isomers) here.
Solution: 8

Exercise: Provide microsomal CLint at 1 μM value for the following compound: COC(=O)N1CCN(C(=O)C2CN(c3ccc(C#N)nn3)C[C@H]2c2ccc(OC)cc2F)CCC[C@@H]1c1ccc(Cl)cc1 (stereo partly drawn)
Solution: 40.1

Exercise: Supply microsomal CLint at 1 μM value. Item: CC(=O)N1CCN(C(=O)[C@@H]2CN(c3ccc4nncn4n3)C[C@H]2c2ccc(Cl)cn2)CCC[C@H]1c1ccc(Cl)cc1
Solution: 13.5

====

# MEASUREMENT DESCRIPTION: In vitro metabolism rate determination, human liver microsome (HLM) assay
# Type: in vitro ADME
# REPORTED CONDITIONS: human, liver microsomes, read-out: HLM: Clint, app
PROPERTY NAME: microsomal CLint at 1 μM (µL/min/mg)
Give your result in µL/min/mg as a bare value.

Reference set (4 entries):
>>> meas_value("CC(C)(C)N1C[C@@H](C(=O)N2CCC(c3ccc(F)cc3F)N(S(C)(=O)=O)CC2)[C@H](c2ccc(F)cc2F)C1 (mixture of isomers) [Example 43]")
52
>>> meas_value("CC(C)C(=O)N1CCN(C(=O)[C@@H]2CN(C(C)(C)C)C[C@H]2c2ccc(Cl)cn2)CCC[C@H]1c1ccc(Cl)cc1 [Example 20]")
18.1
>>> meas_value("COc1ccc([C@@H]2CN(c3ccc(C#N)nn3)C[C@H]2C(=O)N2CCCC(c3ccc(Cl)cc3)N(S(C)(=O)=O)CC2)c(F)c1 (mixture of isomers) [Example 105]")
42
>>> meas_value("CC(C)(C)N1C[C@@H](C(=O)N2CCC[C@@H](c3ccc(Cl)cc3)N(C(=O)N3CCOCC3)CC2)[C@H](c2ccc(F)cc2F)C1 [Example 46]")
71.1

Exercise: Give the value of microsomal CLint at 1 μM reported for the following: COc1ccc([C@@H]2CN(c3ccc(=O)[nH]n3)C[C@H]2C(=O)N2CCCC(c3ccc(Cl)cc3)N(S(C)(=O)=O)CC2)c(F)c1 (single isomer, unassigned) [Example 113]
Solution: 24.8

Exercise: Report measured microsomal CLint at 1 μM; entry is CC(C)(C)C(=O)N1CCN(C(=O)[C@@H]2CN(C(C)(C)C)C[C@H]2c2ccc(F)cc2F)CCC[C@H]1c1ccc(Cl)cc1 [Example 15]
Solution: 57.4

Exercise: For the compound COC(=O)N1CCN(C(=O)[C@@H]2CN(c3ccc(C#N)nn3)C[C@H]2c2ccc(F)cc2F)CCCC1c1ccc(OC)cc1 (mixture of isomers) [Example 48] , report microsomal CLint at 1 μM.
Solution: 55

====

Examples of compounds with documented pEC50 follow.
# ASSAY TARGET: MC4 receptor (Homo sapiens)
# MEASUREMENT DESCRIPTION: MC4 EC50 functional potency (protocol E of US2005/0176772 / WO 2005/077935)
Here pEC50 is given on a logarithmic scale as minus log10 of the concentration in mol/L.

Recorded results for 4 compounds are shown here.
>>> meas_value("CC(C)(C)N1C[C@@H](C(=O)N2CCC[C@@H](c3ccc(Cl)cc3)N(C(=O)C3CC3)CC2)[C@H](c2ccc(F)cc2F)C1")
7.92
>>> meas_value("COc1ccc([C@@H]2CN(c3ccc(C#N)nn3)C[C@H]2C(=O)N2CCC[C@@H](c3ccc(Cl)cc3)N(C(C)=O)CC2)c(F)c1")
8.11
>>> meas_value("CC(C)C(=O)N1CCN(C(=O)[C@@H]2CN(C(C)(C)C)C[C@H]2c2ccc(F)cc2F)CCC[C@H]1c1ccc(Cl)cc1")
8.17
>>> meas_value("CCC(=O)N1CCN(C(=O)[C@@H]2CN(c3ccc(=O)n(C)n3)C[C@H]2c2ccc(Cl)cn2)CCC[C@H]1c1ccc(Cl)cc1")
8.16

Exercise: Tell me measured pEC50 for COc1ccc([C@@H]2CN(c3ccc(=O)n(C)n3)C[C@H]2C(=O)N2CCCC(c3ccc(Cl)cc3)N(S(C)(=O)=O)CC2)c(F)c1 (mixture of isomers) [Example 115] please.
Solution: 7.80

Exercise: Query pEC50 for CC(C)(C)N1C[C@@H](C(=O)N2CCC[C@@H](c3ccc(Cl)cc3)N(C(=O)CC(F)(F)F)CC2)[C@H](c2ccc(F)cc2F)C1
Solution: 7.48

Exercise: Specify pEC50 for COC(=O)N1CCN(C(=O)[C@@H]2CN(C(C)(C)C)C[C@H]2c2ccc(F)cc2F)CCCC1c1ccccc1 (mixture of isomers) and stop.
Solution: 7.22

Exercise: Answer with the recorded pEC50 of COc1ccc([C@@H]2CN(c3cccnn3)C[C@H]2C(=O)N2CCC(c3ccc(Cl)cc3)N(S(C)(=O)=O)CC2)c(F)c1 (mixture of isomers) only.
Solution: 7.59

Exercise: Tell me measured pEC50 for COC(=O)N1CCN(C(=O)[C@@H]2CN(c3ccc(=O)n(C)n3)C[C@H]2c2ccc(OC)cc2F)CCCC1c1ccc(Cl)cc1 (mixture of isomers) please.
Solution: 8.44
